Molecular target: glucocerebrosidase (Homo sapiens, UniProt P04062)
Sequence (P04062 40-536): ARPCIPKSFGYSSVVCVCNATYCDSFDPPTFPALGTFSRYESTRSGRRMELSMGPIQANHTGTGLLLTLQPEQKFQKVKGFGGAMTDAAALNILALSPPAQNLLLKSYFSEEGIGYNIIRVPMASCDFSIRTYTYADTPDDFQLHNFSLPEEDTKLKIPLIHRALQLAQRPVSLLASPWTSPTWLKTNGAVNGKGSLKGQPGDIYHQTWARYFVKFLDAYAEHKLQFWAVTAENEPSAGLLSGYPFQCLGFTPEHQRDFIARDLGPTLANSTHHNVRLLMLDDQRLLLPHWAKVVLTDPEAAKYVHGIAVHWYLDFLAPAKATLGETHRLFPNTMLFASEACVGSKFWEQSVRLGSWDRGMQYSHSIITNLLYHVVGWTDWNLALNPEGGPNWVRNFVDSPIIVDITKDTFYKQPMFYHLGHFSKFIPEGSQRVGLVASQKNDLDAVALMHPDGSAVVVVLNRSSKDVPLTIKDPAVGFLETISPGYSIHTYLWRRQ
Assay: Glucocerebrosidase activity assay with blue substrate (4MU-Glc)
Type: biochemical
Settings: Table 2; additional compounds, tested as described in Example 2
Experimental: Example 2—Glucocerebrosidase Activity Assay with Blue Substrate The compounds in DMSO solution 0.5 μL/well were transferred to a black 96-well plate (the final titration was 24 nM to 50 μM, 12 concentrations, 2× dilution). 33.5 μL enzyme solution (7.5 nM final concentration) was transferred to the wells. […] The fluorescence was then measured in the Biotek Synergy H1 multi-mode plate reader with Ex=365 nm and Em=440 nm. […]
# Emax >= 200% gives YES, anything below gives NO

Take a look at these entries with their results.
STRUCTURE_NOTATION | ANSWER_LABEL
CN(CCOc1ccccc1)c1cc(Cl)nc(-c2cccnc2)n1 | YES
CCc1cncc(-c2nc(N(C)CCOc3ccccc3)c3ccccc3n2)c1 | YES
CCN1Cc2nc(-c3cccnc3)nc(N(C)CCOc3ccccc3)c2C1 | NO

Problem: Determine whether this compound has Emax no lower than 200%: CCn1ncc2c(N3CC[C@H](Oc4ccccc4)C3)nc(-c3cccnc3)nc21
Result: YES

Problem: Param item: c1ccc(OC2CN(c3nc(-c4cccnc4)nc4ccccc34)C2)cc1
Result: YES
